Examples of molecules with documented activation at 1 µM follow.
- system under test: dopaminergic D3 receptor (Homo sapiens, UniProt P35462)
- Sequence (P35462 whole entry): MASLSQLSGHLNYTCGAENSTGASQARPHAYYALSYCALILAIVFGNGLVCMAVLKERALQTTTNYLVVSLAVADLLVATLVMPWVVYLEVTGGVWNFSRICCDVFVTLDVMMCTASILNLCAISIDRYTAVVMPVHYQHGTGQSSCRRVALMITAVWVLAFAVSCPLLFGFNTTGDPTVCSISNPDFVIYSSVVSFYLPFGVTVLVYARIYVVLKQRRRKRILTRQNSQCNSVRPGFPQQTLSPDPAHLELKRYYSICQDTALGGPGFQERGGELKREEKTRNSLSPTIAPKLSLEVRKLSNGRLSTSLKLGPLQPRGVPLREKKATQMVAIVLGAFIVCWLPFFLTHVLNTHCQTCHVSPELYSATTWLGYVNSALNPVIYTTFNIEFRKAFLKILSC
- experiment summary: Cellular functional assay, dopaminergic D3 receptor (agonism/antagonism)
- Type: cell-based
- condition set: agonist effect, percent of control specific agonist response (300 nM dopamine for control); 1×10^−6 M; D3 (h), CHO cells; read-out: D3-ag [%]

{"columns": ["test smiles", "activation at 1 µM"],
 "data": [
  ["O=S(=O)(NCCCCN1CCN(c2noc3ccccc23)CC1)c1ccc(-c2ccccc2)cc1", "-10%"],
  ["O=S(=O)(NCCCCN1CCN(c2nsc3ccccc23)CC1)c1cc2ccc(Cl)cc2s1", "7%"],
  ["O=S(=O)(NCCCCN1CCN(c2noc3ccccc23)CC1)c1cc2ccc(Cl)cc2s1", "0%"],
  ["O=c1[nH]c2cccc(N3CCN(CCCNS(=O)(=O)c4cccc5ccccc45)CC3)c2[nH]1", "70%"],
  ["O=S(=O)(NCCCCN1CCC(c2noc3cc(F)ccc23)CC1)c1ccc(Br)cc1", "-8%"],
  ["O=S(=O)(NCCCCN1CCN(c2noc3ccccc23)CC1)c1c[nH]c2ncccc12", "-18%"],
  ["O=S(=O)(NCCCCN1CCN(c2cccc3[nH]ccc23)CC1)c1ccc2ccccc2c1", "64%"],
  ["O=c1[nH]c2ccc(S(=O)(=O)NCCCN3CCN(c4nsc5ccccc45)CC3)cc2o1", "-24%"]
]}
